Test: recombinant barcode read abundance after kanamycin selection (control-corrected) (log10(CPM+1)); higher = more efficient recombination; sequences stand for … in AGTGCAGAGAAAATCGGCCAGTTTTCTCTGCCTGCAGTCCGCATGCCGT…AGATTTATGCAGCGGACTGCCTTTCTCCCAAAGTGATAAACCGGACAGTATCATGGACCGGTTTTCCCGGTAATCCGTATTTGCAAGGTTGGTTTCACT; site = the 11-nt target;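 also: IS621 recombinase and bridge RNA in Escherichia coli cells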
For each of the sequences below, state its recombinant barcode read abundance (log10).
Enter the number alone.

Recorded recombinant barcode read abundance (log10) (sequence GGTATGACTTGGGTTCTAACCTGTTGCCT (site CGTATGACTAG) ): 0.197

Recorded recombinant barcode read abundance (log10) (sequence GCATGGACTTGGGTTCTAACCTGTTGCAG (site GCAAGGACTCT) ): 0.878

Recorded recombinant barcode read abundance (log10) (sequence TAAGCCTCTTGGGTTCTAACCTGTTGCTG (site TAAGCTACTCA) ): 0

Recorded recombinant barcode read abundance (log10) (sequence GAGCTACCTTGGGTTCTAACCTGTTGCCT (site GAGCTACCTTG) ): 0.0234

Recorded recombinant barcode read abundance (log10) (sequence CTATGACCTTGGGTTCTAACCTGTTGCTT (site CTATGACCTAG) ): 1.26

Recorded recombinant barcode read abundance (log10) (sequence CTATGGACTTGGGTTCTAACCTGTTGCAA (site CTATGGACTCT) ): 0.23

Recorded recombinant barcode read abundance (log10) (sequence TAGACGGCTTGGGTTCTAACCTGTTGCAT (site TAGACGGCTAT) ): 0.463

Recorded recombinant barcode read abundance (log10) (sequence GCCGGTCCTTGGGTTCTAACCTGTTGCCT (site GCAGGTCCTAG) ): 0.522

Recorded recombinant barcode read abundance (log10) (sequence CACAAGTCTTGGGTTCTAACCTGTTGCGT (site CACAAGTCTAC) ): 1.38

Recorded recombinant barcode read abundance (log10) (sequence AAAGGTTCTTGGGTTCTAACCTGTTGCCT (site AAAGGTTCTAG) ): 1.58

Recorded recombinant barcode read abundance (log10) (sequence CTGTTCCCTTGGGTTCTAACCTGTTGCGG (site CTGGTCCCTCC) ): 0.129

Recorded recombinant barcode read abundance (log10) (sequence CGGATAGCTTGGGTTCTAACCTGTTGCCT (site CGGATAGCTAG) ): 0.885

Recorded recombinant barcode read abundance (log10) (sequence ACCCCGTCTTGGGTTCTAACCTGTTGCCT (site ACCCCGTCTAG) ): 1.65

Recorded recombinant barcode read abundance (log10) (sequence CGTACCTCTTGGGTTCTAACCTGTTGCTG (site CGTACCTCTGA) ): 0.0169

Recorded recombinant barcode read abundance (log10) (sequence TTGGTACCTTGGGTTCTAACCTGTTGCCT (site TTGGTGCCTAG) ): 0.138

Recorded recombinant barcode read abundance (log10) (sequence AGCGCGCCTTGGGTTCTAACCTGTTGCTG (site GAGTACACTGC) ): 0.00819

Recorded recombinant barcode read abundance (log10) (sequence CTGCGTGCTTGGGTTCTAACCTGTTGCCT (site CGGCGTGCTAG) ): 0.176

Recorded recombinant barcode read abundance (log10) (sequence GCCGAGTCTTGGGTTCTAACCTGTTGCTG (site GCCGAGTCTCA) ): 0.564

Recorded recombinant barcode read abundance (log10) (sequence GTTTCCTCTTGGGTTCTAACCTGTTGCCG (site GGATCCTCTCG) ): 0.251

Recorded recombinant barcode read abundance (log10) (sequence CGTCGACCTTGGGTTCTAACCTGTTGCAT (site CGTCGACCTAT) ): 0.128

Recorded recombinant barcode read abundance (log10) (sequence AGAGATGCTTGGGTTCTAACCTGTTGCAG (site AGAGATGCTCT) ): 1.8
